Target: Adrenergic receptor alpha-1 (Rattus norvegicus) (UniProt P15823+P23944+P43140)
Assay: In vitro inhibition of the contractile effect of phenylephrine on the isolated rat anococcygeus; potency relative to idazoxan.
Type: functional

[
  {
    "Molecule": "Cc1ccc2c(c1)OC(C1=NCCN1)C2 (configuration not stated)",
    "Antagonist potency": 2.25
  },
  {
    "Molecule": "c1ccc(CCC2(C3=NCCN3)Cc3ccccc3O2)cc1 (configuration not stated)",
    "Antagonist potency": 0.07
  },
  {
    "Molecule": "c1ccc2sc(C3=NCCN3)cc2c1",
    "Antagonist potency": 0.05
  },
  {
    "Molecule": "Cl.c1ccc2c(c1)CC(C1=NCCN1)O2 (configuration not stated)",
    "Antagonist potency": 0.16
  },
  {
    "Molecule": "Cc1cccc2c1OC(C1=NCCN1)C2.Cl (configuration not stated)",
    "Antagonist potency": 0.67
  },
  {
    "Molecule": "CC1(C2=NCCN2)Oc2ccccc2O1",
    "Antagonist potency": 0.01
  },
  {
    "Molecule": "Cc1ccc2c(c1)CC(C1=NCCN1)O2 (configuration not stated)",
    "Antagonist potency": 2.25
  }
]

###

Reported Agonist potency values are given for each entry in this list.
Target: Adrenergic receptor alpha-1 (Rattus norvegicus) (UniProt P15823+P23944+P43140)
Experiment: Agonism in vitro at Alpha-1 adrenoceptor determined in rat anococcygeus preparation.
Format: functional

[
  {
    "Compound": "Oc1ccc2c(c1)CC(C1=NCCN1)O2 (centres undefined)",
    "Target Or System": "Adrenergic receptor alpha-1 (Rattus norvegicus) (UniProt P15823+P23944+P43140)",
    "Agonist potency": 0.25
  },
  {
    "Compound": "c1ccc2oc(C3=NCCN3)cc2c1",
    "Target Or System": "Adrenergic receptor alpha-1 (Rattus norvegicus) (UniProt P15823+P23944+P43140)",
    "Agonist potency": "< 0.001"
  },
  {
    "Compound": "Oc1ccc2c(c1)OC(C1=NCCN1)C2 (centres undefined)",
    "Target Or System": "Adrenergic receptor alpha-1 (Rattus norvegicus) (UniProt P15823+P23944+P43140)",
    "Agonist potency": 1.5
  },
  {
    "Compound": "Clc1cccc2c1CC(C1=NCCN1)O2 (centres undefined)",
    "Target Or System": "Adrenergic receptor alpha-1 (Rattus norvegicus) (UniProt P15823+P23944+P43140)",
    "Agonist potency": 1
  }
]
